target.under.test: Human autotaxin enzyme (Homo sapiens, UniProt Q13822)
Construct: purchased R&D System
assay.info: Evaluation of autotaxin inhibitor, 18:0 Lyso PC / choline assay (Test Example 2)
Assay type: biochemical
recorded.conditions: human autotaxin enzyme, 18:0 Lyso PC substrate, choline assay, room temperature 2 hours; read-out: Inhibitor activity (IC50)
# maps each entry to its IC50

As a guide, the following entries are already answered.
{"columns": ["compound", "IC50"],
 "data": [
  ["CN(CC#N)C(=O)c1cccc(Cn2c(CCCC(F)(F)F)nc(-c3ccc(Cl)cc3)cc2=O)c1 [Compound I-0155]", "100 to 1000 nM"],
  ["O=C(Cn1c(CCCC(F)(F)F)nc(-c2ccc(Cl)cc2)cc1=O)N1CCOC(CO)C1 (stereo not drawn) [Compound I-0139]", "10 to 100 nM"],
  ["NC(=O)C1CCN(C(=O)Cn2c(CCCC(F)(F)F)nc(-c3ccc(Cl)cc3)cc2=O)CC1 [Compound I-0118]", "10 to 100 nM"],
  ["CCCCCc1nc(-c2ccc(Cl)cc2)cc(=O)n1CC(=O)NC1(C(=O)O)CCOCC1 [Compound I-0058]", "≥ 1000 nM"],
  ["CC(O)CNC(=O)Cn1c(CCCC(F)(F)F)nc(-c2ccc(Cl)cc2)cc1=O (stereo not drawn) [Compound I-0119]", "10 to 100 nM"]
]}

Inquiry: Consider the compound shown here: CCCCCNc1nc(-c2ccc(C#N)cc2)cc(=O)n1Cc1cccc(C(=O)O)c1 [Compound I-0022] What is its recorded IC50?
Reply text: 10 to 100 nM

Inquiry: Consider the compound shown here: COC(=O)Nc1cc(Cl)ccc1-c1cc(=O)n(CC(=O)N2CCOCC2(C)C)c(C)n1 [Compound I-0285] What is its recorded IC50?
Reply text: 10 to 100 nM

Inquiry: Consider the compound shown here: CNC(=O)NC1CCN(C(=O)Cn2c(C)nc(-c3ccc(Cl)cc3NC(=O)OC)cc2=O)CC1 [Compound I-0383] What is its recorded IC50?
Reply text: 10 to 100 nM

Inquiry: Consider the compound shown here: CNC(=O)NC1CCN(C(=O)Cn2c(CCCC(F)(F)F)nc(-c3ccc(C(F)(F)F)cc3)cc2=O)CC1 [Compound I-0356] What is its recorded IC50?
Reply text: < 10 nM

Inquiry: Consider the compound shown here: Cc1nc(-c2ccc(Cl)cc2NC(=O)C2CC2)cc(=O)n1CC(=O)NC1(C#N)CC1 [Compound I-0416] What is its recorded IC50?
Reply text: 10 to 100 nM

Inquiry: Consider the compound shown here: COC(=O)Nc1cc(C#N)ccc1-c1cc(=O)n(CC(=O)NCc2c[nH]nn2)c(C)n1 [Compound I-0414] What is its recorded IC50?
Reply text: < 10 nM

Inquiry: Consider the compound shown here: Cc1nc(-c2ccc(C#N)cc2NC(=O)C2CC2)cc(=O)n1CC(=O)O [Compound I-0258] What is its recorded IC50?
Reply text: ≥ 1000 nM

Inquiry: Consider the compound shown here: O=C(c1cccc(Cn2c(CCCC(F)(F)F)nc(-c3ccc(Cl)cc3)cc2=O)c1)N1CCSCC1 [Compound I-0153] What is its recorded IC50?
Reply text: 10 to 100 nM

Inquiry: Consider the compound shown here: COC(=O)Nc1cc(Cl)ccc1-c1cc(=O)n(CC(=O)N2CCCC2(C)C)c(C)n1 [Compound I-0272] What is its recorded IC50?
Reply text: 10 to 100 nM

Inquiry: Consider the compound shown here: COC(=O)Nc1cc(Cl)ccc1-c1cc(=O)n(CC(=O)N2CC(C(C)(C)O)C2)c(C)n1 [Compound I-0441] What is its recorded IC50?
Reply text: 100 to 1000 nM

Inquiry: Consider the compound shown here: O=C(O)c1cc(Cn2c(CCCC(F)(F)F)nc(-c3ccc(Cl)cc3)cc2=O)cs1 [Compound I-0292] What is its recorded IC50?
Reply text: 10 to 100 nM

Inquiry: Consider the compound shown here: CN(CCO)C(=O)Cn1c(CCCC(F)(F)F)nc(-c2ccc(C(F)(F)F)cc2)cc1=O [Compound I-0305] What is its recorded IC50?
Reply text: 10 to 100 nM

Inquiry: Consider the compound shown here: CCCCCc1nc(-c2ccc(Cl)cc2)cc(=O)n1CC(=O)NC1CN2CCC1CC2 (stereo not drawn) [Compound I-0104] What is its recorded IC50?
Reply text: 100 to 1000 nM

* * *

target.under.test: Human autotaxin enzyme (Homo sapiens)
Construct: purchased R&D System
assay.info: Evaluation of autotaxin inhibitor, 18:0 Lyso PC / choline assay (Test Example 2)
Format: biochemical
recorded.conditions: human autotaxin enzyme, 18:0 Lyso PC substrate, choline assay, room temperature 2 hours; read-out: Inhibitor activity (IC50)
Description: Solution B containing 100 mM Tris-HCl buffer (pH7.5), 150 mM NaCl, 5 mM MgCl2, and 0.05% Triton X-100 was prepared. Human autotaxin enzyme (purchased from R&D System) was diluted with Solution B, and 2.5 μl of which was added to a solution of test compound in DMSO. […] The fluorescent dye Resorufin, which was produced by the reaction, was detected. The fluorescence was detected using ViewLux (PerkinElmer, Inc.) with a excitation wavelength of 531 nm and a fluorescence wavelength of 598 nm. […]
# maps each entry to its IC50

As a guide, the following entries are already answered.
{"columns": ["compound", "target.under.test", "value.kind", "measured.result"],
 "data": [
  ["CCCCCc1nc(-c2ccc(Cl)cc2NC(C)=O)cc(=O)n1CC(=O)NC1(C#N)CC1 [Compound I-0205]", "Human autotaxin enzyme (Homo sapiens)", "IC50", "10 to 100 nM"],
  ["CCCOCc1nc(-c2ccc(Cl)cc2)cc(=O)n1CC(=O)NCC(C)(C)O [Compound I-0213]", "Human autotaxin enzyme (Homo sapiens)", "IC50", "100 to 1000 nM"]
]}

Inquiry: Consider the compound shown here: Cn1c(=O)cc(-c2ccc(Cl)cc2)n(CCCC#N)c1=N [Compound I-0108] What is its recorded IC50?
Reply text: ≥ 1000 nM

Inquiry: Consider the compound shown here: CC(C)(C)C(=O)Nc1cc(Cl)ccc1-c1cc(=O)n(Cc2cccc(C(=O)NC(CO)CO)c2)cn1 [Compound I-0486] What is its recorded IC50?
Reply text: 100 to 1000 nM

Inquiry: Consider the compound shown here: O=C(NC(CO)CO)c1cccc(Cn2c(CCCC(F)(F)F)nc(-c3ccc(Cl)cc3)cc2=O)c1 [Compound I-0165] What is its recorded IC50?
Reply text: 100 to 1000 nM

Inquiry: Consider the compound shown here: O=C(O)c1cccc(Cn2c(CCCC(F)(F)F)nc(-c3ccc(Cl)cc3)cc2=O)c1 [Compound I-0112] What is its recorded IC50?
Reply text: 10 to 100 nM

Inquiry: Consider the compound shown here: Cc1nc(-c2ccc(C#N)cc2NC(=O)C2CC2)cc(=O)n1Cc1cccc(C(=O)O)c1 [Compound I-0271] What is its recorded IC50?
Reply text: < 10 nM

* * *

# maps each entry to its IC50
target.under.test: Human autotaxin enzyme (Homo sapiens, UniProt Q13822)
Construct: purchased R&D System
assay.info: Evaluation of autotaxin inhibitor, 18:0 Lyso PC / choline assay (Test Example 2)
Type: biochemical
recorded.conditions: human autotaxin enzyme, 18:0 Lyso PC substrate, choline assay, room temperature 2 hours; read-out: Inhibitor activity (IC50)

{"columns": ["compound", "target.under.test", "measured.result"],
 "data": [
  ["CCCCCc1nc(-c2ccc(Cl)cc2)cc(=O)n1CC(=O)NCC1(CO)CC1", "Human autotaxin enzyme (Homo sapiens, UniProt Q13822)", "10 to 100 nM"],
  ["CCCCCc1nc(-c2ccc(Cl)cc2)cc(=O)n1CC(=O)N1CCCC1C(=O)O (stereo not drawn)", "Human autotaxin enzyme (Homo sapiens, UniProt Q13822)", "≥ 1000 nM"],
  ["O=C(Cn1c(CCCC(F)(F)F)nc(-c2ccc(C(F)(F)F)cc2)cc1=O)NCCc1cn[nH]c1", "Human autotaxin enzyme (Homo sapiens, UniProt Q13822)", "10 to 100 nM"]
]}

Inquiry: Consider the compound shown here: N#CCNC(=O)c1cccc(Cn2c(CCCC(F)(F)F)nc(-c3ccc(Cl)cc3)cc2=O)c1 What is its recorded IC50?
Reply text: 100 to 1000 nM

Inquiry: Consider the compound shown here: CNC(=O)CN1CCC(NC(=O)Cn2c(CCCC(F)(F)F)nc(-c3ccc(C(F)(F)F)cc3)cc2=O)CC1 What is its recorded IC50?
Reply text: 100 to 1000 nM

Inquiry: Consider the compound shown here: CCCCCNc1nc(-c2ccc(C(F)(F)F)cc2)cc(=O)n1Cc1ccc(C(=O)NCC(=O)O)cc1 What is its recorded IC50?
Reply text: 100 to 1000 nM

* * *

target.under.test: Human autotaxin enzyme (Homo sapiens)
Construct: purchased R&D System
assay.info: Evaluation of autotaxin inhibitor, 18:0 Lyso PC / choline assay (Test Example 2)
Assay type: biochemical
recorded.conditions: human autotaxin enzyme, 18:0 Lyso PC substrate, choline assay, room temperature 2 hours; read-out: Inhibitor activity (IC50)
# maps each entry to its IC50

Inquiry: Consider the compound shown here: COC(=O)Nc1cc(Cl)ccc1-c1cc(=O)n(CC(=O)N2CCC(c3nc(=O)o[nH]3)CC2)c(C)n1 What is its recorded IC50?
Reply text: < 10 nM

Inquiry: Consider the compound shown here: Cc1nc(-c2ccc(Cl)cc2NC(=O)C2CC2)cc(=O)n1CC(=O)NC(C)(C)CF What is its recorded IC50?
Reply text: 10 to 100 nM

Inquiry: Consider the compound shown here: N#CC1(NC(=O)Cn2c(COCC3CC3)nc(-c3ccc(Cl)cc3)cc2=O)CC1 What is its recorded IC50?
Reply text: 10 to 100 nM

Inquiry: Consider the compound shown here: COC(=O)Nc1cc(Cl)ccc1-c1cc(=O)n(CC(=O)NC(C)C)c(C)n1 What is its recorded IC50?
Reply text: 10 to 100 nM

Inquiry: Consider the compound shown here: O=C(Cn1c(CCCC(F)(F)F)nc(-c2ccc(C(F)(F)F)cc2)cc1=O)NCC1(CO)COC1 What is its recorded IC50?
Reply text: 10 to 100 nM

Inquiry: Consider the compound shown here: O=C(NCCS(=O)(=O)O)c1cccc(Cn2c(CCCC(F)(F)F)nc(-c3ccc(Cl)cc3)cc2=O)c1 What is its recorded IC50?
Reply text: 10 to 100 nM

Inquiry: Consider the compound shown here: CC(C)(C)OC(=O)Cn1c(CCC(F)(F)F)nc(-c2ccc(Cl)cc2NC(=O)C(C)(C)C)cc1=O What is its recorded IC50?
Reply text: 100 to 1000 nM
